Each record here notes measured pIC50.
biological target: HDAC9 (Homo sapiens); assay: HDAC inhibition assay (Caliper EZ reader, FAM-labeled peptide substrate); conditions: recombinant human HDAC, 60 min at room temperature, 2 μM substrate
Sequence (Q9UKV0 whole entry): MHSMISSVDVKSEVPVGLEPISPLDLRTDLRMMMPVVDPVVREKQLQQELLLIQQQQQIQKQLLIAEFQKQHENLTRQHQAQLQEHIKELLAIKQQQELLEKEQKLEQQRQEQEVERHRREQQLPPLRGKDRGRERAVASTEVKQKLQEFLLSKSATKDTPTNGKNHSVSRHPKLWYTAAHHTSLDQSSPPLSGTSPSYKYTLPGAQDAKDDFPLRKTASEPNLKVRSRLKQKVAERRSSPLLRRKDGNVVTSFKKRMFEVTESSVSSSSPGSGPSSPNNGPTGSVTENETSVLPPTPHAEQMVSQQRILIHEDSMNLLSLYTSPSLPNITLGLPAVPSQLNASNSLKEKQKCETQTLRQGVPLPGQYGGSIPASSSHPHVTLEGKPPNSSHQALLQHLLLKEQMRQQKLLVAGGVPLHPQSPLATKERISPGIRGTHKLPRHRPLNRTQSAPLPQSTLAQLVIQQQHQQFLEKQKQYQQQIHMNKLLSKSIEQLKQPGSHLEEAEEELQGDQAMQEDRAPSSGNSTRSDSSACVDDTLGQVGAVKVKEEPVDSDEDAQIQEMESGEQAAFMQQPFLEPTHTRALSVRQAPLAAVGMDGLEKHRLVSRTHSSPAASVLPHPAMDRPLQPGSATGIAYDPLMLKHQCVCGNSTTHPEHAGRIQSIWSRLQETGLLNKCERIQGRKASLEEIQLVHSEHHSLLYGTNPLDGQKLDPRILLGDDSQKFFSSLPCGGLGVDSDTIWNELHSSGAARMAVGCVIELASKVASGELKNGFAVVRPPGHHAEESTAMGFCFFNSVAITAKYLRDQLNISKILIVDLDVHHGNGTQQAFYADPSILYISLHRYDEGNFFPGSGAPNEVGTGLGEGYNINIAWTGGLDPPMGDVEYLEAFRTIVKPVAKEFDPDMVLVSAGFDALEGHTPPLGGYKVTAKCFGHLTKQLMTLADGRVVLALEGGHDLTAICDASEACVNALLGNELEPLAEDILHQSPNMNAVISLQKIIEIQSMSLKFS
pIC50: −log10 of the molar value.

[
  {
    "MOLECULE": "O=C(/C=C/c1ccc(CN(CCF)CC23CC4CC(CC(C4)C2)C3)cc1)NO",
    "TESTED TARGET": "HDAC9 (Homo sapiens)",
    "pIC50": "< 4.52"
  },
  {
    "MOLECULE": "O=C(/C=C/c1ccc(CNCC23CC4CC(CC(C4)C2)C3)c(F)c1)NO",
    "TESTED TARGET": "HDAC9 (Homo sapiens)",
    "pIC50": "< 4.30"
  }
]
